B1: KAT8 regulatory NSL complex subunit 2, residues 28 to 91; numbered along this chain, Q9H9L4 (parent)
chain: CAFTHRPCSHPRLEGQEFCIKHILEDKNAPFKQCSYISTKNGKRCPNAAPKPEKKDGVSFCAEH

- Variants of: B1
- PROTOCOL SUMMARY: abundance fitness (aPCA) (normalised: wild type 0, dead -1); higher = more abundant; growth selection in yeast, the domain comes from the species named
- APPLIED CONDITIONS: Homo sapiens
# label = bin(measured abundance fitness), where bins are low = under -0.3, moderate = from -0.3 up to -0.1, high = -0.1 and over

VARIANT LABEL	GROUP
E25K	moderate
N28E	high
A62D	high
E14M	high
N28M	moderate
S35N	moderate
V58R	high
E14H	moderate
F18V	low
N47I	moderate
P30F	low
P11N	moderate
C8G	low
A48C	high
A62Q	high
I37W	moderate
A2F	low
K21P	low
P7M	high
S38F	high
A29P	moderate
D26Q	moderate
D26R	moderate
G15A	moderate
E63C	moderate
P7R	high
E25M	high
P46R	high
H22I	low
C19Q	low
P11R	high
P30M	moderate
C45N	low
A62H	high
C34N	low
C8A	low
T39Y	moderate
H5Y	moderate
E63I	moderate
L13W	low
A62Y	moderate
C45L	low
E17L	moderate
I37C	high
N47A	high
C8N	low
C19P	low
S38N	moderate
F31N	low
F3M	moderate
P7D	high
N28S	high
H10D	moderate
F18N	low
P46I	high
S9L	moderate
E25H	high
N47L	high
I20T	moderate
L13C	low
S35T	moderate
H10I	high
T39I	moderate
C8M	low
P50L	moderate
P50Y	moderate
P11H	moderate
H10F	high
R12G	low
Y36A	high
P11W	low
A48V	moderate
F18S	low
K27W	moderate
K21T	moderate
K51T	moderate
H22Q	low
S9V	high
Q33T	high
C45I	low
E14R	moderate
I37E	high
G42F	moderate
L24S	moderate
A29W	low
S35E	high
I23F	low
L13M	high
I23N	low
